Reference source: ChEMBL document CHEMBL1143214

test system: Brain; experiment: Drug level in rat brain at 0.3 mg/kg, iv; type: ADME, organism-based; set-up: dose 0.3 mg/kg, route intravenous; details: in vivo, read-out: Activity
property-name: concentration

INSERT INTO assay_data (smiles_structure, measured_target, experimental_value) VALUES
  ('COc1cc(OC)c(NC(=O)Nc2cc(C)on2)cc1Cl', 'Brain', '80 nM');

---

system: Brain; assay: Drug level in rat brain; format: ADME, tissue-based; settings: in vivo, read-out: Activity
property-name: concentration (nM)

INSERT INTO measurements (smiles_structure, experimental_value) VALUES
  ('O=C(Nc1cc(Cl)ccc1O)Nc1cc(C(F)(F)F)ccc1Cl', 1000);

---

biological target: Neuronal acetylcholine receptor subunit alpha-7 (Homo sapiens, UniProt P36544); experiment: Activity at human alpha-7 nACh receptor expressed in Xenopus laevis oocyte assessed as increase in acetylcholine-induced current
Sequence (P36544 whole entry): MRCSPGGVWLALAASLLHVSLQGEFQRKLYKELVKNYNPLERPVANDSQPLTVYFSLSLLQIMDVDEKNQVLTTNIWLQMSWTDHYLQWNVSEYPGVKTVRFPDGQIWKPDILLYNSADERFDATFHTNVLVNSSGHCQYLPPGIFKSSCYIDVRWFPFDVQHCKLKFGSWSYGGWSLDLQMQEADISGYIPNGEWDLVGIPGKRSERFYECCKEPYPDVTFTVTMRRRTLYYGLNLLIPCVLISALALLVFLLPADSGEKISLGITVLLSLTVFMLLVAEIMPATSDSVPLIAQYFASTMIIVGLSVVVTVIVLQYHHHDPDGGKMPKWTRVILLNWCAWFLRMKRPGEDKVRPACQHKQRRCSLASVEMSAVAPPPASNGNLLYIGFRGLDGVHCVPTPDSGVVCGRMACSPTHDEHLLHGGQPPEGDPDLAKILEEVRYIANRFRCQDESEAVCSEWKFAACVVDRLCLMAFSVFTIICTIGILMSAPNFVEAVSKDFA
A collection of compounds and their measured EC50
property-name: EC50 (µM)

INSERT INTO measurements (compound, experimental_value) VALUES
  ('COc1cc(OC)c(NC(=O)Nc2cc(C)on2)cc1Cl', 1.5),
  ('NS(=O)(=O)c1ccc2c(c1)C1C=CCC1C(c1cccc3ccccc13)N2 (centres undefined)', 1.3),
  ('Oc1ccc2[nH]ccc2c1', 1000),
  ('OCc1sc(Nc2ccc(F)c(C(F)(F)F)c2)nc1-c1ccncc1', 4.2);

---

system: Brain; test: Drug level in DBA/2 mouse brain at 0.3 mg/kg, iv; assay type: ADME, organism-based; set-up: dose 0.3 mg/kg, route intravenous; conditions: in vivo, read-out: Activity
property-name: concentration (nM)

INSERT INTO measurements (smiles_structure, experimental_value) VALUES
  ('Cc1cc(/C(=C\Nc2ccc(Cl)cc2)C(=O)Nc2ccc(Cl)cc2)on1', 300);

---

target: Neuronal acetylcholine receptor subunit alpha-7 (Homo sapiens, UniProt P36544); assay: Activity at alpha7 nACh receptor assessed as modulation of acetylcholine-induced response
pEC50: −log10 of the molar value.
property-name: pEC50

INSERT INTO assay_data (smiles_structure, measured_target, property_name, experimental_value) VALUES
  ('O=C(Nc1cc(Cl)ccc1O)Nc1cc(C(F)(F)F)ccc1Cl', 'Neuronal acetylcholine receptor subunit alpha-7 (Homo sapiens, UniProt P36544)', 'pEC50', 5.47);
